Provide the reported mean motility score of each item.
test system: Trichuris muris adult worms; assay: mean motility score (Paragon pixel variance) of adult worms (arbitrary units); higher = more motile worms, i.e. less anthelmintic effect; extreme values may be limits of the assay; conditions: 100 µM; 24 h
Give bare numbers.

Here's what some known entries look like.
* COc1ccc2cc([C@@H](C)C(=O)O)ccc2c1 [(R)-naproxen] | 1390
* C#CCN(C)Cc1ccccc1 | 2290

Please supply mean motility score for each of the following items, keeping them in order.
1. CCCCC/C=C\C/C=C\C/C=C\CCCCC(=O)O
2. OC(CCCN1CCCCC1)(c1ccccc1)c1ccccc1
3. C[C@]12CC[C@@H]3c4ccc(O)cc4CC[C@H]3[C@@H]1CCC2=O
4. CO[C@@]1(NC(=O)CSCC#N)C(=O)N2C(C(=O)[O-])=C(CSc3nnnn3C)CS[C@@H]21.[Na+] [cefmetazole sodium]

[2970, 1940, 2280, 2040]

Give mean motility score for each of the items listed below.
1. Cc1c(N(C)C)c(=O)n(-c2ccccc2)n1C
2. NC(=O)c1ncn([C@@H]2O[C@H](CO)[C@@H](O)[C@H]2O)c1O
3. Cc1ccc(N(C=C2NCCN2)c2cccc(O)c2)cc1
4. COc1ccc2c(c1)c(CC(=O)O)c(C)n2C(=O)c1ccc(Cl)cc1
5. Cc1cc(C2CCCCC2)n(O)c(=O)c1
6. CN1CCCC(n2nc(Cc3ccc(Cl)cc3)c3ccccc3c2=O)CC1.Cl (stereo not given) [azelastine hydrochloride]
7. COc1cc2c(Nc3ccc(Br)cc3F)ncnc2cc1OCC1CCN(C)CC1
8. O=C(O)[C@@H](O)[C@H](O)C(=O)O

[2250, 2990, 2960, 2460, 3190, 396, 0, 3400]

Go through the items and report each one's mean motility score.
1. CC1=CC(=O)c2ccccc2C1=O
2. N[C@@H](CO)C(=O)O
3. CCOC(=O)n1ccn(C)c1=S
4. CCCCC1=NC2(CCCC2)C(=O)N1Cc1ccc(-c2ccccc2-c2nn[nH]n2)cc1
5. CN1CCC[C@H]1c1cccnc1
6. Nc1ccccc1NC(=O)c1ccc(CNC(=O)OCc2cccnc2)cc1

1. 361
2. 2250
3. 1610
4. 2360
5. 0
6. 2720
